Source: patent US20220144922A1

Target: T1, prefusion-stabilized RSV F ectodomain (DS-Cav1), subtype B (respiratory syncytial virus subtype B)
T1 construct: extracellular domain; also called Prefusion subtype B
Test: BLI, IgG on sensor
Attribute Measured: Kd (nM)
Enter your answer as a number in nM; do not include the unit.

Which Kd value is on record for ADI-15631 (antibody, V domains shown, IgG) VH: QVQLVESGGGLVQPGRSLRLSCAASGFTFDNYPMHWIRQAPGKGLEWVSGISWHSGSIGYADSVKGRFTISRDNAKNSLYLQMNSLRTEDTALYYCAKDAHYFDNSGHYYYGLDVWGQGTTVTVSS VL: EIVLTQSPATLSVSPGERATLSCRASQNIINNLAWYQQKPGQAPRLLISGASTRATGIPARFSGSGSGTEFTLTITSLQSEDFAVYYCQQYNNWPLTFGGGTKVDIK ?
0.552
